Target: anti-MAG IgM antibodies
Assay: Competitive binding assay (modified anti-MAG ELISA): compounds compete with immobilized MAG for anti-MAG IgM antibodies of patient sera
Parameters: species or system human
Settings: patient serum KH (dilution 1:3,000); MAG-coated plates
Method: FIG. 1. Schematic representation of a competitive binding assay • (a) Incubation of MAG-coated plates with anti-MAG IgM (patient sera) and polymer 25. (b) Wash step. (c) Incubation with anti-human IgM antibody coupled to horseradish peroxidase. (d) Wash step. […] IC50 values of compound 1 were determined for all sera. Those of compound 2 were determined for serum MK with the highest antibody affinity for 1 and for serum SJ with the lowest antibody affinity for 1. […]
readoutName: pIC50
Note: pIC50 values are expressed as the negative base-10 logarithm of concentration in M.

Give the measured pIC50 for COc1ccc(OC2OC(CO)C(O)C(OC3OC(C(=O)O)C(O)C(OS(=O)(=O)O)C3O)C2O)cc1 (stereo not shown)
3.21
